What IC50 was measured for each of the following?
# TARGET: Human FXIa (Homo sapiens, UniProt P03951)
# Construct: Human FXIa (Enzyme Research Laboratories) was incubated; purchased Enzyme Research Laboratories
# Sequence (P03951 388-625 limits assumed): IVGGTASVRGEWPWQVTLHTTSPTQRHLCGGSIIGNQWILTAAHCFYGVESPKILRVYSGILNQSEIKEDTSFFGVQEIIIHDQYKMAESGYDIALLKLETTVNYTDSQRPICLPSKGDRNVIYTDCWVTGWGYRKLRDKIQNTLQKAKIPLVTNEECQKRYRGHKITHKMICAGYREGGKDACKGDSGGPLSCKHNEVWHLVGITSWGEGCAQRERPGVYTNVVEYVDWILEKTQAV
# Sequence (P03951 19-387 partner limits assumed): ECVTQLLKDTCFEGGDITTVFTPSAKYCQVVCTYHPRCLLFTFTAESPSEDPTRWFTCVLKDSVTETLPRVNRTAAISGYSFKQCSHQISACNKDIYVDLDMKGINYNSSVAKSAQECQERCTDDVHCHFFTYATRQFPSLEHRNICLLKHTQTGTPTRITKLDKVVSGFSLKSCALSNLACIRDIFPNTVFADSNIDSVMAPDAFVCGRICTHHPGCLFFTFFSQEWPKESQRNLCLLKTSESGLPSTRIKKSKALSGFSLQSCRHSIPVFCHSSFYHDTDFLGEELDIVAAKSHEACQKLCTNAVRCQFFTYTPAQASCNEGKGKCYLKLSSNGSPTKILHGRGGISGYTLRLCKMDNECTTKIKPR
# EXPERIMENT: FXIa inhibitory activity in vitro (fluorogenic substrate Z-Gly-Pro-Arg-AFC), selectivity
# Type: biochemical
# CONDITIONS: category scale, 25° C.

Check out these entries, answers already filled in.
{"columns": ["COMPOUND", "IC50"],
 "data": [
  ["N[C@H](CCc1ccccc1)C(=O)N1CCC1C(=O)NCc1cnc2[nH]cc(Cl)c2c1 (stereo partly shown) [Example 10.02]", "> 40 µM"],
  ["C[C@H](NC(=O)[C@@H](CCc1ccccc1)NS(C)(=O)=O)C(=O)NCc1ccc2c(N)nccc2c1 [Example 6.20]", "0.3 to 1 µM"],
  ["Cc1c(CNC(=O)[C@H](C)NC(=O)[C@H](N)CCc2ccccc2)ccc2c(N)nccc12 [Example 9.06]", "10 to 40 µM"],
  ["Nc1nccc2cc(CNC(=O)[C@@H]3CCN3C(=O)[C@H](N)CCc3ccccc3)ccc12 [Example 17.05]", "10 to 40 µM"],
  ["CC(C)N[C@H](CCCCN1CCOCC1)C(=O)N1CC[C@H]1C(=O)NCc1cnc2[nH]cc(Cl)c2c1 [Example 10.05]", "> 40 µM"],
  ["C[C@H](NC(=O)[C@@H](CCc1ccccc1)NC(=O)OC(C)(C)C)C(=O)NCc1ccc2c(N)nccc2c1 [Example 6.25]", "10 to 40 µM"]
]}

# context switch: different compound, same IC50
Asked: Quick one: IC50 for C[C@H](NC(=O)[C@@H]1C=C(c2ccccc2)CN1)C(=O)NCc1ccc2c(N)nccc2c1 [Example 45.02] ?
Given back: 3 to 10 µM
